Exercise: for every item that follows, state its recorded Epitope Bin.
# system-name: T1, Histidine-tagged DLL3 antigen (DLL3-His) (Homo sapiens, UniProt Q9NYJ7)
# T1 construct: corresponding to amino acids Ala27-Ala479 with a C-terminal 6×His tag; made in house; host or cells: HEK293T cells
# T1 sequence (Q9NYJ7 27-479): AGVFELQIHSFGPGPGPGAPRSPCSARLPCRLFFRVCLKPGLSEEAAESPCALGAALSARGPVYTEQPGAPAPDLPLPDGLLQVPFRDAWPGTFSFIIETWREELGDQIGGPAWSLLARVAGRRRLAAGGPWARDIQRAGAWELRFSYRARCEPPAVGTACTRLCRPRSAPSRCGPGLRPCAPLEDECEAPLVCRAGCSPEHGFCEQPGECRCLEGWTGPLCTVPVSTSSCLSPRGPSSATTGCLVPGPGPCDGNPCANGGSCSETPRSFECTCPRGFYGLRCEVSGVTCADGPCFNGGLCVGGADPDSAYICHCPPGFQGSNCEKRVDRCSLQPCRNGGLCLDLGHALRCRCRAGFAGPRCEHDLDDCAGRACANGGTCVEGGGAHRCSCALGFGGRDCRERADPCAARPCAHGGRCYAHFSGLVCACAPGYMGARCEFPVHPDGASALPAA
# protocol-description: Pairwise epitope binning on Carterra array SPR
# condition-context: pairwise competition for binding to DLL3-His, antibodies immobilized on HC200M chip

Record request: Epitope Bin value, item E23: anti-DLL3 antibody, VH SEQ ID NO: 119, VL SEQ ID NO: 120 (antibody, V domains shown) VH: QVQLVQSGAEVRKPGASVKVSCKASGYTFTGYYMHWVRQAPGQGLEWMGWINSYSGGANYAQKFQDRVTMTRDTSVSTASMELSRLRSDDTAVYYCARDGSGWYGSYFDFWGQGTLVTVSS VL: DIVMTQTPLSSPVTLGQPASISCRSSQSLVHSDGNTYLSWLQQRPGQPPRLLIYKISNRFSGVPDRFSGSGAGTDFTLKISRVEAEDVGFYYCIQTTQFPLTFGGGTKVEIK
7

Record request: Epitope Bin value, item G16: anti-DLL3 antibody, VH SEQ ID NO: 157, VL SEQ ID NO: 158 (antibody, V domains shown) VH: QVQLVQSGAEVKKPGASVQVSCKASGYTFTSYYMHWVRQAPGQGLEWMGIINPSGGSTSYAQKFQGRVTMTRDTSTSTVYMELSSLRSEDTAVYYCARQGGAQWLVLAFDIWGQGTMVTVSS VL: EIVLTQSPGTLSLSPGERATLSCRASQSVSSYLAWYQQKPGQAPRLLIYGASSRATGIPDRFSGGGSGTDFTLTISRLEPEDFAVYYCQQYGSSPYTFGQGTKLEIK
4

Record request: Epitope Bin value, item F9: anti-DLL3 antibody, VH SEQ ID NO: 126, VL SEQ ID NO: 127 (antibody, V domains shown) VH: QVQLVQSGAEVKKPGASVQVSCKASGYTFTSYYMHWVRQAPGQGLEWMGIINPSGGSTSYAQKFQGRVTMTRDTSTSTVYMELSSLRSEDTAVYYCARQGGAQWLVLAFDIWGQGTMVTVSS VL: EIVLTQSPGTLSLSPGERATLSCRASQSVSSYLAWYQQKPGQPPRLLIYGASSRATGIPDRFSGGGSGTDFTLTISRLEPEDFAVYYCQQYDSSPYTFGQGTKLEIK
4

Record request: Epitope Bin value, item O24: anti-DLL3 antibody, VH SEQ ID NO: 66, VL SEQ ID NO: 67 (antibody, V domains shown) VH: QVQLVQSGAEVKKPGASVKVSCKASGYTFTSYYLHWVRQAPGHGLEWMAIINPSGGSTSYAQKFLGRVTMTRDTSTNTVYMELSSLRSEDTAVYYCARERQQLDYYYFAMDVWGQGTTVTVSS VL: DIQMTQSPSSLSASVGDRVTITCRASQGISNYLAWFQQKPGKAPKSLIYAASSLQSGVPSKFSGSGSGTDFTLTISSLQPEDFATYYCQQYNSYPPTFGQGTKVEIK
4

Record request: Epitope Bin value, item B16-v2: anti-DLL3 antibody, VH SEQ ID NO: 108, VL SEQ ID NO: 113 (antibody, V domains shown) VH: QVQLVQSGAEVKKPGASVKVSCKASGYTFTSYYMHWVRQAPGQGLEWMGIIDPSGGSTSYAQKFQGRVTMTRDTSTNTVYMDLSSLRSEDTAVYYCARQGRYVGSYLDYWGQGTLVTVSS VL: DIQMTQSPSSLSASVGDRVTITCRASQGISNYLAWFQQKPGKAPKSVIYAASSLQSGVPSKFSGSGSGTDFTLTISSMQPEDFATYYCQQYNSYPYTFGQGTKLEIK
4

Record request: Epitope Bin value, item J8: anti-DLL3 antibody, VH SEQ ID NO: 7, VL SEQ ID NO: 8 (antibody, V domains shown) VH: QVHLVQSGAEVKKPGASVKVSCKASGYTFTIYYIHWVRQAPGQGLEWMGIINPSGGSTSYAQKFQGRVTMTRDTSTSTVYMELSSLRSEDTAVYYCSGNDYVDYVTTDYYGMDVWGQGTTVTVSS VL: DIQMTQSPSSLSASVGDRVTITCRASQGISNYLAWFQQKPGKAPKSLIYAASSLQSGVPSKFSGSGSGTDFTLTISSLQPEDFATYYCQQYNSSPYTFGQGTKLEIK
4
